Each recorded value in this set is attributed to the RNAGym collection of RNA variant scans (doi:10.1093/molbev/msab373).

B1: Azoarcus group I ribozyme (parent)
chain: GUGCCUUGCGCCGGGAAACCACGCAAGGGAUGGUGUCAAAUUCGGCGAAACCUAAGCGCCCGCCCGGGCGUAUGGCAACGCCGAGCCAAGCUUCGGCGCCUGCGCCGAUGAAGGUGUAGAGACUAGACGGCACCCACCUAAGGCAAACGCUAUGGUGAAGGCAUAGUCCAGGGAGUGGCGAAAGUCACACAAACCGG

Variants of: B1
ASSAY_OVERVIEW: reverse-splicing fitness (ratio to wild type); higher = more active; in vitro selection; Mg2+ level not given
EXPERIMENTAL_ENDPOINT: reverse-splicing fitness
Lab note: write the figure by itself, no unit.

The examples below pair each entry with its known result.
>  <VARIANT_SPEC>
C82G A111G A120U A145C C150U

>  <reverse-splicing fitness>
0.0153

$$$$
>  <VARIANT_SPEC>
A111U A120U A145C C150A C169G U176C

>  <reverse-splicing fitness>
0.00308

$$$$
>  <VARIANT_SPEC>
A111G A120U A145G C150G C169U

>  <reverse-splicing fitness>
0.0149

$$$$

QUERY: Could you please provide reported reverse-splicing fitness for C82A A111G A120C A145U C150A C169U U176G ? Thanks!
RESULT: 0.00664

QUERY: Please give the documented reverse-splicing fitness of C82A A111C A120C A145G C150G C169U
RESULT: 0.00903

QUERY: Please give measured reverse-splicing fitness of the following entry: C82A A111U A120U A145C C150G C169G U176C
RESULT: 0.0024

QUERY: Could you please provide reported reverse-splicing fitness for C82G A120U A145G C150A C169A U176G ? Thanks!
RESULT: 0.00256

QUERY: Recall and state the measured reverse-splicing fitness for C82U A111C A145C C169A U176C .
RESULT: 0.00939

QUERY: Consider the variant C82U A145G C169G U176A . State its measured reverse-splicing fitness.
RESULT: 0.0184

QUERY: Provide only the value of recorded reverse-splicing fitness for C82G A111G A145C C150U C169U U176G
RESULT: 0.0062

QUERY: Return the recorded reverse-splicing fitness value; entry: C82A A111G A145U C169A
RESULT: 0.00788

QUERY: Assign reverse-splicing fitness to the following record: C82U A145C C150U U176G
RESULT: 0.0408

QUERY: Return the recorded reverse-splicing fitness value; entry: C82A A111C A120U A145C C150U C169A U176A
RESULT: 0.00309

QUERY: Fill in reverse-splicing fitness for record C82U A120C A145G C150U C169A U176G
RESULT: 0.00464

QUERY: Give the measured reverse-splicing fitness for C82G A111C A145U C169U U176C
RESULT: 0.0153
